microsomal CLint at 2 μM values by entry
Assay: Metabolic stability in liver microsomes, mouse
Details: mouse, microsomes, pH 7.4
Structures can show the parent of a compound that is named as a salt.
parameter: microsomal CLint at 2 μM (µL/min/mg)

molecule	result
COc1ccsc1CNCC[C@@]1(c2ccccn2)CCOC2(CCCC2)C1 [TRV-130, reference compound]	831
[2H]C([2H])([2H])N(C[C@@H]1CN(C(=O)Cc2cc(F)c(F)cc2F)CC[C@@]1(O)c1cccc(OC)c1)C([2H])([2H])[2H] [II-9hydrochloride]	612
[2H]C([2H])([2H])N(C)C[C@@H]1CN(C(=O)Cc2cc(F)c(F)cc2F)CC[C@@]1(O)c1cccc(OC)c1 [II-7hydrochloride]	661
[2H]C([2H])([2H])N(C)C[C@@H]1CN(S(=O)(=O)Cc2ccccc2)CC[C@@]1(O)c1cccc(OC)c1 [II-1hydrochloride]	659
[2H]C([2H])([2H])N(C[C@@H]1CN(S(=O)(=O)Cc2ccccc2)CC[C@@]1(O)c1cccc(OC)c1)C([2H])([2H])[2H] [II-3hydrochloride]	660
[2H]C([2H])([2H])Oc1cccc([C@]2(O)CCN(C(=O)Cc3cc(F)c(F)cc3F)C[C@H]2CN(C([2H])([2H])[2H])C([2H])([2H])[2H])c1 [II-11hydrochloride]	700
[2H]C([2H])([2H])Oc1cccc([C@]2(O)CCN(S(=O)(=O)Cc3ccccc3)C[C@H]2CN(C([2H])([2H])[2H])C([2H])([2H])[2H])c1 [II-5hydrochloride]	706
